measured.on: TNFα (UniProt P01375 77-233)
Sequence (P01375 77-233 limits assumed): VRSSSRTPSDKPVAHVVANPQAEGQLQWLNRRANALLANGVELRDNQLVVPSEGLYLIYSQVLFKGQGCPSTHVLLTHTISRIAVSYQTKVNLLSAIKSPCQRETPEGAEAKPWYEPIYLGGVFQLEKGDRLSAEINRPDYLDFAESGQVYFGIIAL
assay.details: SPR (Biacore), TNFα on CM5 chip, Fab injected
Assign fold difference in affinity against the chimeric antibody anti-TNFα H0L0 to each entry below.

*Q* Which measured fold difference in affinity against the chimeric antibody anti-TNFα H0L0 value corresponds to Anti-TNFα H1.67L1.33 (Fab, V domains shown, Fab format) VH: EVQLVESGGGLVQPGGSLKLSCAASGFTFSNHWMNWVRQASGKGLEWVGEIRSKAISYATHYAASVKGRFTISRDDSKNTAYLQMNSLKTEDTAVYYCSRNYYGSTYDYWGQGTLVTVSS VL: EIVLTQSPDFQSVTPKEKVTITCRASQFIGSSLHWYQQKPDQSPKLLIKYASESFSGVPSRFSGSGSGTDFTLTINSLEAEDAATYYCQQSHSWPFTFGSGTKLEIK ?
*A* ≤ 3 fold

*Q* Follow-up item: Anti-TNFα H1.101L1.33 (Fab, V domains shown, Fab format) VH: EVQLVESGGGLVQPGGSLKLSCAASGFIFSNHWMNWVRQASGKGLEWVGEIRSKAINYATHYAESVKGRFTISRDDSKSTAYLQMNSLKTEDTAVYYCSRNYYGSTYDYWGQGTLVTVSS VL: EIVLTQSPDFQSVTPKEKVTITCRASQFIGSSLHWYQQKPDQSPKLLIKYASESFSGVPSRFSGSGSGTDFTLTINSLEAEDAATYYCQQSHSWPFTFGSGTKLEIK
*A* ≤ 3 fold

*Q* Can you handle Anti-TNFα H1.103L1.33 (Fab, V domains shown, Fab format; It has thirteen more mutations than anti-TNFα H1L1; also called anti-TNF H1.103L1.33) VH: EVQLVESGGGLVQPGGSLKLSCAASGFIFSNHWMNWVRQASGKGLEWVGEIRSKANNYATHYAASVKGRFTISRDDSKNTAYLQMNSLKTEDTAVYYCSRNYYGSTYDYWGQGTLVTVSS VL: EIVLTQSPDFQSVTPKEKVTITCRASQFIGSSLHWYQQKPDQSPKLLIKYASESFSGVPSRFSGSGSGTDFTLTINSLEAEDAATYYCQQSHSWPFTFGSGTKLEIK next?
*A* ≤ 3 fold
